Quick reference for inhibition among some molecules
Target: Glucose transporter (Leishmania mexicana) (UniProt O61059)
Assay: ST_JUDE_LEISH: Cytotoxicity at 2uM final concentration against transgenic Leishmania Mexicana promastigotes LmGT2 that are glucose transport deficient and complemented with the L. Mexicana glucose transporter 2. Activity is measured by DNA content using SYBR green in vitro
Type: functional
I only need the number, in %, no unit after it.

MOLECULE	SYSTEM_UNDER_TEST	inhibition [%]
Cc1ncc([N+](=O)[O-])n1CCOC(=O)NC(NCC1COc2ccccc2O1)C(Cl)(Cl)Cl (centres undefined)	Glucose transporter (Leishmania mexicana) (UniProt O61059)	2.19
Cc1ccc(-c2nc(NC(=O)Nc3ccc(C(F)(F)F)cc3)sc2C)cc1Cl	Glucose transporter (Leishmania mexicana) (UniProt O61059)	1.54
CCOC(=O)CCCc1cc(NC2CCN(C)CC2)nc(Nc2ccc(C)cc2)n1	Glucose transporter (Leishmania mexicana) (UniProt O61059)	-2.59
O=C(NCc1ccc(C(=O)N2CCC(N3CCCCC3)CC2)cc1)c1cc(-c2cccc(C(F)(F)F)c2)ccc1O	Glucose transporter (Leishmania mexicana) (UniProt O61059)	7.14
O=C(COc1ccc(F)cc1)NC1CCN(c2ccnc3cc(Cl)ccc23)C1 (centres undefined)	Glucose transporter (Leishmania mexicana) (UniProt O61059)	6.88
CN(C)C=Nc1ccc(OCCCCCCOc2ccc(N=CN(C)C)cc2)cc1	Glucose transporter (Leishmania mexicana) (UniProt O61059)	2.37

So for CC(C)c1ccc(-c2noc(SCC(=O)N3CCCCC3C)n2)cc1 (centres undefined) , the logged inhibition turned out to be -2.55

Notebook: COc1cc(C(=O)Nc2cccc(-c3cn4cccc(C)c4n3)c2)cc(OC)c1OC , inhibition read as 10.5

Looking up COc1ccc(N2CCN(CCCC/C=C/c3ccc(NC(=O)c4cc(Cl)cc(Cl)c4)cc3)CC2)c(OC)c1 , I found its inhibition recorded as 0.93
